# subject_of_test: Tyrosine-protein phosphatase non-receptor type 1 (Homo sapiens, UniProt P18031)
# Sequence (P18031 whole entry): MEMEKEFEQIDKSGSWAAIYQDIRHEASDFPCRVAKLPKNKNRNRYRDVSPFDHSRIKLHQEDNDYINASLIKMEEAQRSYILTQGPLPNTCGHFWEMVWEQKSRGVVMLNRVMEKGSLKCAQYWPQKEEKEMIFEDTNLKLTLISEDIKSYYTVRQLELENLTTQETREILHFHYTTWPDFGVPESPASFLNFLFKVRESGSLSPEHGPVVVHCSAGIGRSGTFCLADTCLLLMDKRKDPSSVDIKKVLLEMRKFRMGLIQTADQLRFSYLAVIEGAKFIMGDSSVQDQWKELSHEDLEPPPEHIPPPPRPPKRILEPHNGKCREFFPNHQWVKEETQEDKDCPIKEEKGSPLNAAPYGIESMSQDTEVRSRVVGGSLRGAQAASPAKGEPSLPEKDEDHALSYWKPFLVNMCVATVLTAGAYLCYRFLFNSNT
measurement_kind: IC50 (µM)

{"columns": ["smiles_text", "subject_of_test", "display_unit", "IC50"],
 "data": [
  ["COc1cccc(C(=O)Nc2nnc(-c3ccc(Oc4ccc([N+](=O)[O-])cc4[N+](=O)[O-])cc3)s2)c1", "Tyrosine-protein phosphatase non-receptor type 1 (Homo sapiens, UniProt P18031)", "µM", 10.8],
  ["O=C(Cc1cccc2ccccc12)Nc1nnc(-c2ccc(Oc3ccc([N+](=O)[O-])cc3)cc2)s1", "Tyrosine-protein phosphatase non-receptor type 1 (Homo sapiens, UniProt P18031)", "µM", 7.52],
  ["O=C(Nc1nnc(-c2ccc(Oc3ccc([N+](=O)[O-])cc3)cc2)s1)c1ccccc1", "Tyrosine-protein phosphatase non-receptor type 1 (Homo sapiens, UniProt P18031)", "µM", 9.89]
]}
